Can you tell me % inhibition in confirmation assay for the items I'm about to list?
target: pre-existing anti-VH ADA in human serum; experiment: ADA confirmation assay (MSD) described previously, mean of 10 donor sera
Give just the numeric value; % need not be written.

Recorded result, DOM10H-53-567 C-terminal A (protein) VH: GVQLLESGGGLVQPGGSLRLSCAASGFVFAWYDMGWVRQAPGKGLEWVSSIDWHGEVTYYADSVKGRFTISRDNSKNTLYLQMNSLRAEDTAVYYCATAEDEPGYDYWGQGTLVTVSSA , % inhibition in confirmation assay: 12.8

Recorded result, DOM10H-53-567 (protein) VH: GVQLLESGGGLVQPGGSLRLSCAASGFVFAWYDMGWVRQAPGKGLEWVSSIDWHGEVTYYADSVKGRFTISRDNSKNTLYLQMNSLRAEDTAVYYCATAEDEPGYDYWGQGTLVTVSS , % inhibition in confirmation assay: 95.1

Recorded result, DOM10H-53-567 C-terminal AST (protein) VH: GVQLLESGGGLVQPGGSLRLSCAASGFVFAWYDMGWVRQAPGKGLEWVSSIDWHGEVTYYADSVKGRFTISRDNSKNTLYLQMNSLRAEDTAVYYCATAEDEPGYDYWGQGTLVTVSSAST , % inhibition in confirmation assay: 29

Recorded result, DOM10H-53-567 C-terminal AS (protein) VH: GVQLLESGGGLVQPGGSLRLSCAASGFVFAWYDMGWVRQAPGKGLEWVSSIDWHGEVTYYADSVKGRFTISRDNSKNTLYLQMNSLRAEDTAVYYCATAEDEPGYDYWGQGTLVTVSSAS , % inhibition in confirmation assay: 14.8
